All values here come from ChEMBL document CHEMBL3414489.

assay: Plasma protein binding in rat; format: ADME, cell-free; conditions: read-out: PPB (converted)
The entries below are paired with their reported fraction unbound.
READOUT KIND: fraction unbound

{"columns": ["CHEM SMILES", "READOUT KIND", "ASSAY RESULT"],
 "data": [
  ["C[C@@H]1CCCN1CCCOc1ccc(C2=NNC(=O)[C@H]3C[C@@H]23)cc1", "fraction unbound", 0.46],
  ["C[C@@H]1CCCN1CCCOc1ccc(C2=NNC(=O)[C@@H]3C[C@H]23)cc1", "fraction unbound", 0.19]
]}

* * *

assay: Plasma protein binding in human; format: ADME, cell-free; conditions: read-out: PPB (converted)
The entries below are paired with their reported fraction unbound.
READOUT KIND: fraction unbound

{"columns": ["CHEM SMILES", "ASSAY RESULT"],
 "data": [
  ["C[C@@H]1CCCN1CCCOc1ccc(C2=NNC(=O)[C@@H]3C[C@H]23)cc1", 0.55],
  ["C[C@@H]1CCCN1CCCOc1ccc(C2=NNC(=O)[C@H]3C[C@@H]23)cc1", 0.39]
]}

* * *

assay: Aqueous solubility of the compound at pH 2; type: physicochemical

{"columns": ["CHEM SMILES", "solubility"],
 "data": [
  ["C[C@@H]1CCCN1CCCOc1ccc(C2=NNC(=O)[C@@H]3C[C@H]23)cc1", "> 4000 µg/mL"],
  ["C[C@@H]1CCCN1CCCOc1ccc(C2=NNC(=O)[C@H]3C[C@@H]23)cc1", "> 4000 µg/mL"]
]}

* * *

assay: Half life in human liver microsomes; assay type: ADME

{"columns": ["MOLECULE", "half-life"],
 "data": [
  ["C[C@@H]1CCCN1CCCOc1ccc(C2=NNC(=O)C3CC23)cc1 (some centres undefined)", "> 40 min"],
  ["C[C@@H]1CCCN1CCCOc1ccc(C2=NNC(=O)[C@@H]3C[C@H]23)cc1", "> 40 min"],
  ["C[C@@H]1CCCN1CCCOc1ccc(C2=NNC(=O)[C@H]3C[C@@H]23)cc1", "> 40 min"],
  ["C[C@H](COc1ccc(C2=NNC(=O)C3CC23)cc1)CN1CCC[C@H]1C (mixture of isomers)", "> 40 min"]
]}

* * *

experiment: Half life in dog liver microsomes; format: ADME, Canis lupus familiaris

{"columns": ["MOLECULE", "half-life"],
 "data": [
  ["C[C@@H]1CCCN1CCCOc1ccc(C2=NNC(=O)C3CC23)cc1 (some centres not stated)", "> 40 min"],
  ["C[C@H](COc1ccc(C2=NNC(=O)C3CC23)cc1)CN1CCC[C@H]1C (mixture of isomers)", "> 40 min"]
]}
